assay-target: T1, human amylin receptor (AMY3) on CHO-K1/Ga15/AMY3 cells (human, UniProt P30988 25-474; O60896 24-148)
T1 sequence (looked up) 1: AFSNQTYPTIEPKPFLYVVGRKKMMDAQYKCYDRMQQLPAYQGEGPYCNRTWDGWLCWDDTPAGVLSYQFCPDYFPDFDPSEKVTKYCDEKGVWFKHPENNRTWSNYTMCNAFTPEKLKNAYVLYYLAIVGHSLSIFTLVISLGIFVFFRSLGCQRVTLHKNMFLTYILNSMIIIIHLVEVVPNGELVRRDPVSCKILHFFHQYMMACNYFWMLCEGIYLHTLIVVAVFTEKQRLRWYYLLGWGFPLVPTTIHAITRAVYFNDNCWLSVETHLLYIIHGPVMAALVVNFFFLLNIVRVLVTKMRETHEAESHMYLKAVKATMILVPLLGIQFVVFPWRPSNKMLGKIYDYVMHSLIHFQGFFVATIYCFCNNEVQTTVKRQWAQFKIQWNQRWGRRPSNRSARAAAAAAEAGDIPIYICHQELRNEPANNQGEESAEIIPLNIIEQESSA
T1 sequence (looked up) 2: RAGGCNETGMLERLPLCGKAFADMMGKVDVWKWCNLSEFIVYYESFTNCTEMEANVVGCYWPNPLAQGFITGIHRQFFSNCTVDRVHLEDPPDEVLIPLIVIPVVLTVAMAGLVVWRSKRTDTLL
experimental-details: cell-based or functional assay
*1 amine or outer side, *2 acyl side, *3 side chain or, on linkers, in order; H or OH if unused. Bridges are numbered along the chain shown (N, C = ends). Where no end group is shown, it is not given here. Side-chain parts run from the residue outwards. [ ]: non-standard residue; d: D form. The star is where a group is joined. C20 diacid = O=C(O)CCCCCCCCCCCCCCCCCCC(=O)*; γGlu = O=C(O)[C@H](CCC(=O)[*:2])N[*:1]; Hyp = O=C(O)[C@@H]1C[C@@H](O)CN1; AEEA = NCCOCCOCC(=O)O
property-measured: EC50, CRE-luciferase assay (nM)

[[record]]
binder = "{C20 diacid-γGlu-AEEA-AEEA}-KCNTATCATQRLADFLRHSSNNLGPILPPTNVGSNT[Hyp]-NH2 (disulfide 2-7 (inferred); not fully specified; printed as KCNTATCATQRLADFLRHSSNNLGPILPPTNVGSNT-trans-Hyp-NH2) [PD123]"
property_measured = "EC50, CRE-luciferase assay"
recorded_value = 0.068

[[record]]
binder = "RCNTATCATQRLAEFLRHSSNNLK([γGlu-C20 diacid])PILPPTNVGSNTP-NH2 (disulfide 2-7 (inferred)) [PD009]"
property_measured = "EC50, CRE-luciferase assay"
recorded_value = 0.067

